Experiment: in vivo
Details: NOD-scid IL-2Rγc-null, mouse, po, 50 mg/kg
QUANTITY_NAME: half-life (min)
Please respond with the number in min and leave the unit unwritten.

Exercise: Param item = Cc1cn2c(-c3ccnc(NCC4CC4)n3)c(-c3ccc(F)c(NS(C)(=O)=O)c3)nc2cc1CN(C)C [ML10] ; retrieve measured half-life.
Key: 522

---

Experiment: Stability in human liver microsomes
Details: human, microsomes, 40 min
QUANTITY_NAME: hlm (%rem) (%)
Please state the figure in %; there is no need to write the unit.

Some compounds with recorded hlm (%rem):
CHEMICAL_STRING | hlm (%rem), %
Fc1ccc(-c2nc3ccccn3c2-c2ccnc(Nc3ccc(N4CCNCC4)cc3)n2)cc1 | 100
CN(C)Cc1ccn2c(-c3ccnc(N)n3)c(-c3ccc(F)c(NS(C)(=O)=O)c3)nc2c1 | 91
CN(C)Cc1ccn2c(-c3ccnc(N)n3)c(-c3cccc(S(C)(=O)=O)c3)nc2c1 | 96

# evaluate next
Exercise: Returns the measured hlm (%rem) for the input compound. Input: CN(C)Cc1ccn2c(-c3ccnc(N)n3)c(-c3cccc(NS(C)(=O)=O)c3)nc2c1
Key: 82
